- Test system: MDA-MB-435
- assay.protocol: NCI tumour cell line growth inhibition, 48 h
// reported TGI for each item listed
attribute.measured: TGI (µM)

{"molecule": "COc1cc2c(c(O)c1OC)CC1CCC(=O)N1C2c1cccc2ccccc12 (centres undefined)", "target.system": "MDA-MB-435", "bound.sign": "=", "result.number": 40.4}
{"molecule": "CNC(=O)c1c(NC(=O)c2ccc(C(C)(C)C)cc2)sc2c1CCC(=O)C2", "target.system": "MDA-MB-435", "bound.sign": "=", "result.number": 1.42}
{"molecule": "Cc1c(N=Nc2ccccc2)c(C)n(C2OC(CO)C(O)C(O)C2O)c(=S)c1C#N (centres undefined)", "target.system": "MDA-MB-435", "bound.sign": "=", "result.number": 71.4}
{"molecule": "CNC(=O)c1c(NC(=O)c2ccc(C(C)(C)C)cc2)sc2c(CN(C)C)c(O)ccc12", "target.system": "MDA-MB-435", "bound.sign": "=", "result.number": 3.34}
{"molecule": "Cc1cc2c(cc1Cl)S/C(=C/C(=O)O)C(Nc1ccc3ncsc3c1)=NS2(=O)=O", "target.system": "MDA-MB-435", "bound.sign": ">", "result.number": 53.4}
{"molecule": "CSc1ccn(C2CC(F)C(CO)O2)c(=O)n1 (centres undefined)", "target.system": "MDA-MB-435", "bound.sign": ">", "result.number": 100}
{"molecule": "COC12C=C/C(=C(/C(=O)OCc3ccccn3)C(=O)CCCCCCCCC3(OC)C=C/C(=C(/C(=O)OCc4ccccn4)C(=O)CCCCCCCC1)O3)O2", "target.system": "MDA-MB-435", "bound.sign": "=", "result.number": 0.48}
{"molecule": "COc1ccc2c3c([nH]c2c1)CCN(CCCC(=O)c1ccc(F)cc1)C3", "target.system": "MDA-MB-435", "bound.sign": "=", "result.number": 31}
{"molecule": "CC1CC[P+](c2ccccc2)(c2ccccc2)c2c1ccc1ccccc21 (centres undefined)", "target.system": "MDA-MB-435", "bound.sign": "=", "result.number": 16.4}
